Source: patent US11690824B2

System: MRSA MW2
Test: Antibiotic synergy test (checkerboard)
Type: cell-based, S. aureus
Conditions: nTZDpa in combination with the named antibiotic, synergy if FICI ≤ 0.5
FICI (fractional inhibitory concentration index) of 1 or higher: 1 (yes). Under 1: 0 (no).

INSERT INTO assay_data (compound, category) VALUES
  ('[H]/N=C(/N)N[C@H]1[C@H](O)[C@@H](O)[C@H](O[C@@H]2O[C@@H](C)[C@](O)(C=O)[C@H]2O[C@@H]2O[C@@H](CO)[C@H](O)[C@@H](O)[C@@H]2NC)[C@@H](N/C(N)=N\[H])[C@@H]1O [Streptomycin, streptomycin]', '0 (no)'),
  ('NC[C@H]1O[C@H](O[C@H]2[C@H](O)[C@@H](O[C@H]3O[C@H](CO)[C@@H](O)[C@H](N)[C@H]3O)[C@H](N)C[C@@H]2N)[C@H](O)[C@@H](O)[C@@H]1O [Kanamycin, kanamysin]', '0 (no)'),
  ('CN(C)[C@@H]1C(O)=C(C(N)=O)C(=O)[C@@]2(O)C(O)=C3C(=O)c4c(O)cccc4[C@@](C)(O)[C@H]3C[C@@H]12 [Tetracycline, tetracycline]', '1 (yes)'),
  ('NC[C@H]1O[C@H](O[C@H]2[C@H](O)[C@@H](O[C@H]3O[C@H](CO)[C@@H](O)[C@H](N)[C@H]3O)[C@H](N)C[C@@H]2N)[C@H](N)C[C@@H]1O [Tobramycin, tobaramysin]', '0 (no)');

###

Entries and their measured HC50: median hemolytic concentration follow.
Test system: human erythrocytes
Test: Human blood hemolysis
Type: cell-based
Settings: human erythrocytes
readout: HC50: median hemolytic concentration (µg/mL)

INSERT INTO assay_data (input_smiles, u, qualifier_operator, number) VALUES
  ('O=C(O)c1c(Oc2ccc(Cl)cc2)c2cc(Cl)ccc2n1Cc1ccc(Cl)cc1', 'µg/mL', '>', 64),
  ('O=C(O)c1c(Sc2ccccc2)c2cc(Cl)ccc2n1Cc1ccc(Cl)cc1', 'µg/mL', '=', 47),
  ('O=C(O)c1c(Sc2ccc(Cl)cc2)c2cc(Cl)ccc2n1Cc1ccc(Cl)cc1', 'µg/mL', '=', 34),
  ('O=C(O)c1c(Oc2ccccc2)c2cc(Cl)ccc2n1Cc1ccc(Cl)c(Cl)c1', 'µg/mL', '>', 64),
  ('O=C(O)c1c(Oc2ccc(I)cc2)c2cc(Cl)ccc2n1Cc1ccc(Cl)cc1', 'µg/mL', '>', 64);

###

Tested on: S. aureus (MRSA) MW2
Test: Minimal inhibitory concentration (MIC) assay, micro-dilution
Type: cell-based
Conditions: Staphylococcus aureus; Table 3, growing MRSA; read-out: MIC
Below: a set of entries, each annotated with reported MIC.
readout: MIC (µg/mL)

INSERT INTO assay_data (molecule, experimental_target, readout, number) VALUES
  ('O=C(O)c1c(Oc2ccccc2)c2cc(Cl)ccc2n1Cc1ccc(Cl)c(Cl)c1 [Compound 10]', 'S. aureus (MRSA) MW2', 'MIC', 2),
  ('CC(C)(C)c1ccc(Sc2c(C(=O)O)n(Cc3ccc(Cl)cc3)c3ccc(Cl)cc23)cc1 [Compound 5]', 'S. aureus (MRSA) MW2', 'MIC', 2),
  ('O=C(O)c1c(Oc2ccc(Br)cc2)c2cc(Cl)ccc2n1Cc1ccc(Cl)cc1 [Compound 13]', 'S. aureus (MRSA) MW2', 'MIC', 2),
  ('O=C(O)c1c(Oc2ccc(Cl)c(Cl)c2)c2cc(Cl)ccc2n1Cc1ccc(Cl)cc1 [Compound 12]', 'S. aureus (MRSA) MW2', 'MIC', 1),
  ('O=C(O)c1c(Oc2ccccc2)c2cc(Cl)ccc2n1Cc1ccc(Cl)cc1 [Compound 6]', 'S. aureus (MRSA) MW2', 'MIC', 4),
  ('O=C(O)c1c(Sc2ccc(Cl)cc2)c2cc(Cl)ccc2n1Cc1ccc(Cl)cc1 [Compound 4]', 'S. aureus (MRSA) MW2', 'MIC', 2),
  ('O=C(O)c1c(Oc2ccc(I)cc2)c2cc(Cl)ccc2n1Cc1ccc(Cl)cc1 [Compound 14]', 'S. aureus (MRSA) MW2', 'MIC', 1),
  ('O=C(O)c1c(Oc2ccc(Cl)cc2)c2cc(Cl)ccc2n1Cc1ccc(Cl)cc1 [Compound 11]', 'S. aureus (MRSA) MW2', 'MIC', 2),
  ('O=C(O)c1c(Sc2ccccc2)c2cc(Cl)ccc2n1Cc1ccc(Cl)cc1 [nTZDpa]', 'S. aureus (MRSA) MW2', 'MIC', 4);

###

Test system: human erythrocytes
Assay: Human blood hemolysis
Format: cell-based
Conditions: human erythrocytes
Protocol: Human blood hemolysis. Hemolytic activity was evaluated as described in a previous study. […] 50 μL of the supernatant was transferred to a fresh 96-well plate, and absorbance of supernatants was measured at 540 nm. Percent hemolysis was calculated using the following equation: (A540 nm of compound treated sample−A540 nm of 0.1% DMSO treated sample)/(A540 nm of 1% Triton X-100 treated sample−A540 nm of 0.1% DMSO treated sample)×100. […]
readout: HC50: median hemolytic concentration (µg/mL)

INSERT INTO assay_data (compound, u, qualifier_operator, number) VALUES
  ('O=C(O)c1c(Oc2ccccc2)c2cc(Cl)ccc2n1Cc1ccc(Cl)cc1 [Compound 6]', 'µg/mL', '>', 64),
  ('CC(C)(C)c1ccc(Sc2c(C(=O)O)n(Cc3ccc(Cl)cc3)c3ccc(Cl)cc23)cc1 [Compound 5]', 'µg/mL', '=', 26),
  ('O=C(O)c1c(Oc2ccc(Br)cc2)c2cc(Cl)ccc2n1Cc1ccc(Cl)cc1 [Compound 13]', 'µg/mL', '>', 64),
  ('O=C(O)c1c(Oc2ccc(Cl)c(Cl)c2)c2cc(Cl)ccc2n1Cc1ccc(Cl)cc1 [Compound 12]', 'µg/mL', '=', 38);
